target: 5-HT6 receptor (Homo sapiens (Human), UniProt P50406)
Sequence (P50406 whole entry): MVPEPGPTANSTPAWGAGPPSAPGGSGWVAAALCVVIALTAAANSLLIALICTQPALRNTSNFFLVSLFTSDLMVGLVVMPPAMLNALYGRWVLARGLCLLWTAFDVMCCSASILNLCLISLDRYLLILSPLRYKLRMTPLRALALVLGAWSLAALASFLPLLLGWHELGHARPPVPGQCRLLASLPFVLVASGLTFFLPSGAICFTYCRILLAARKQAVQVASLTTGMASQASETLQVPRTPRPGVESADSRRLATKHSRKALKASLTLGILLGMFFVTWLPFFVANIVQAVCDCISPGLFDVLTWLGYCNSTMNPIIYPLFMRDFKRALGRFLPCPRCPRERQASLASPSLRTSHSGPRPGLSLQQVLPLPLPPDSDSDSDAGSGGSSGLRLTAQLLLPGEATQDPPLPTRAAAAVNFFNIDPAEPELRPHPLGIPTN
Structures can show the parent of a compound that is named as a salt.
parameter: Ki (nM)
Output spec: scalar in nM, unitless text.

Ask: Tell me Ki of CNc1nn2c3c(c(C)nc2c1S(=O)(=O)c1ccccc1)CN(C)CC3 [1.1(4)•HCl] when tested on 5-HT6 receptor (Homo sapiens (Human), UniProt P50406).
Result: 0.685

====

target: 5-HT6 receptor (Homo sapiens (Human), UniProt P50406); assay: Competitive radioligand binding ([3H] Lysergic acid diethylamide) to serotonin 5-HT6 receptors, HeLa cell membranes; details: 1.5 nM [3H] Lysergic acid diethylamide
Counter-ions that a name gives are not always drawn.
parameter: IC50
Give the number first and the unit second.

Ask: Tell us which IC50 value is on record for CNc1nn2c3c(c(C)nc2c1S(=O)(=O)c1ccccc1)CN(C)CC3 [1.1(4)•HCl]
Result: 1.48 nM
